Here the recorded growth is given for each entry.
# Tested on: CCRF-CEM leukemia
# PROTOCOL: NCI-60 one-dose screen, 48 h (100 = growth as untreated, 0 = no growth, -100 = all killed)
# MEASUREMENT_SETUP: 10 µM unless noted
The panel holds about 83,000 compounds, 20% with a hit somewhere; the sample as a whole holds those more often.
VALUE_KIND: growth (%)

COc1ccc(-c2cnc(-c3ccncc3-c3cccc(OC)c3)o2)cc1
3.12
Cc1ccc(C(CN(C)C)C(=O)c2ccccc2)cc1 (stereo not given)
-9.16
O=C(C(=O)N1CCCC1)c1cn(CCCn2cc(C(=O)C(=O)N3CCCC3)c3cc(Br)ccc32)c2ccc(Br)cc12
74
c1ccc(-c2nnn(-c3ccccc3)n2)cc1
95.2
CC(NC(=O)c1ccccc1)C(=O)Nc1ccccc1 (stereo not given)
90.4
COc1cc(-c2nc(-c3ccc(-c4nc5ccc(F)cc5[nH]4)cc3)no2)cc(OC)c1OC
8.61
COc1cc(CN(c2ccc(C)cc2)C2OC(=O)c3ccccc32)cc(OC)c1OC (stereo not given)
11.5
CCN(CC)c1ccc2c(cc1=O)[C@@H](NC(C)=O)CCc1cc(OC)c(OC)c(OC)c1-2
9.47
O/N=C1\c2ccccc2-c2ccc(Br)cc21
71.8
COc1ccc(/C=C(\C#N)c2cc(OC)c(OC)c(OC)c2)cc1
14.9

---

# Test system: ACHN renal
# PROTOCOL: NCI-60 one-dose screen, 48 h
# MEASUREMENT_SETUP: 10 µM unless noted
# Procedure: Growth inhibition of the ACHN human tumor cell line is measured as a screen for anti-cancer activity. Cells are grown in 96 well plates and exposed to the test compound for 48 hours. Compounds are tested at a single concentration, which is 10^-5 M for most compounds. The reported endpoint is percent growth (GI% or GIPRCNT), where numbers from 0 - 100% represent growth inhibition, and numbers from -100% - 0 represent cell death. For example, a value of 40 represents 60% growth inhibition. […]
This is part of a sample that, as a whole, favours compounds with a hit. Of some 83,000 tested, about 20% had one in any assay. The source made the active and inactive calls. How the source made its calls: active means growth percent below 10; inactive means the rest.
Outcome codes: t (active), f (inactive)

N=c1nc(N2CCCCC2)cc(N)n1O
f
CCCCCCCCCCCCNC(=O)N[C@H](C(=O)N[C@H]1/C=C/OCCNC(=O)/C=C/[C@H](C(C)C)NC1=O)C(C)C
f
CC(=O)Cc1ccccn1
f
C/C(=N\Nc1ccc([N+](=O)[O-])cn1)c1ccc(N)cc1
f
CC(C)(C)c1ccc(OC(=O)Nc2ccccc2)cc1
f
CC1CCN(CCCCCOc2ccc3oc4ccc(Cl)cc4c(=O)c3c2)CC1
f
CCN(CC)c1ccc(/C=N/NC(=O)C[N+](C)(C)C)cc1
f
O=C(O)c1ccccc1Oc1cc(-c2ccco2)nc(OCCN2CCOCC2)n1
f
Cc1nn(-c2ccccc2)c2nc3c(nc12)C1=NCCN1C(c1ccc(Cl)cc1)N3 (centres undefined)
f
OC(COCc1ccccc1)COCc1ccccc1
f
CN1C2CCC1/C(=C\c1ccc(Cl)cc1)C(=O)/C2=C/c1ccc(Cl)cc1
f
C=C(C)[C@@H]1CC[C@]2(C(=O)O)CC[C@]3(C)[C@H](CC[C@@H]4[C@@]5(C)C[C@@H](CC#Cc6ccc(C(C)=O)s6)[C@H](O)C(C)(C)[C@@H]5CC[C@]43C)[C@@H]12
f
CC(C)(C)OC[C@@H]1N=C(c2ccc(Br)cc2)Nc2nc3ccccn3c2C1=O
f
CC(C)CCC(=O)[C@@H](C)[C@H]1[C@@H](OC2OCC(O)C(O)C2NS(C)(=O)=O)C[C@H]2[C@@H]3CC=C4C[C@@H](O)CC[C@]4(C)[C@H]3CC[C@]12C (some centres undefined)
f
CCCCCCCC/C=C/CCCCCCCC1=NC(C)(C)CN1C(C)C
t
CC1=C(/C=C/C(C)=C/C=C(C(=O)O)\C(C)=C\C(=O)O)C(C)(C)CCC1
f
O=C(Nc1cccc(-n2ccc3c(NC(=O)c4ccccc4)nccc32)c1)c1ccc(Cl)c(Cl)c1
t
ClCc1c(Cl)c(Cl)c(Cl)c(CCl)c1Cl
t
Cc1cc(O)c2cc3c(O)c(O)ccc3cc2c1
f
C=CC(=O)N1CN(C(=O)C=C)CN(C(=O)C=C)C1
f
Oc1c(C(Nc2ccccc2Br)c2ccccc2)ccc2cccnc12 (centres undefined)
f
CN(C)c1ccc(C2(Cl)c3ccccc3N(C)c3ccccc32)cc1
f
O=C(NCCN1CCCC1)n1cc(-c2ccncc2)c(-c2cc(O)cc(Cl)c2)n1
f
O=C(Nc1ccc(Cl)cc1)c1cc(-c2ccc(Cl)cc2)c2sc(=O)[nH]c2n1
t
CN1C2CCC1/C(=C\c1ccc(F)cc1)C(=O)/C2=C/c1ccc(F)cc1
f
COc1cc(-c2nn(C(=O)NCCN3CCN(C)CC3)cc2-c2ccncc2)ccc1Cl
f
COc1ccc(N=C2CSc3nnc(-c4cc(F)c(Cl)cc4Cl)n3N2)cc1
t
COc1nccc2c(Sc3ccccc3)nc(N)nc12
f
O=C(N/N=C/c1ccccc1O)c1ccncc1
f
C[C@H](NC(=O)c1snnc1C1CC1)c1c(F)cccc1Cl
f
CCCCOc1nc2ccccc2cc1/C=C/c1cc(/C=C/c2cc3ccccc3nc2OCCCC)n(-c2ccccc2)n1
f
CCOC(=O)CCN(CCC(=O)OCC)c1ccccc1
f
COc1ccc(Nc2nc(N)nc3c(=O)[nH]ccc23)cc1
f
O=C1/C(=C/N2N=C(c3ccc(Cl)cc3)CC2c2ccccc2O)SC(=S)N1c1cccc(C(F)(F)F)c1 (centres undefined)
f
CC(C)=CC[C@@H]1CC2(CC=C(C)C)C(=O)C(OC3(C(=O)c4ccccc4)C(=O)C4(CC=C(C)C)C[C@@H](CC=C(C)C)C(C)(C)C(CC=C(C)C)(C4=O)C3=O)(C(=O)c3ccccc3)C(=O)C(CC=C(C)C)(C2=O)C1(C)C (some centres undefined)
t
COc1ccc(C(=O)OC2C(OC3C(O)COC(O[C@H]4C[C@H]5[C@@H]6CC=C7C[C@@H](O)CC[C@]7(C)[C@H]6CC[C@]5(C)[C@H]4[C@H](C)C(=O)CCC(C)C)C3OC(C)=O)OCC(O)C2O)cc1 (some centres undefined)
f
Cn1cnc([N+](=O)[O-])c1S(=O)(=O)Oc1cccc2ccccc12
t
COc1ccc2nc3cc(Cl)ccc3c(NC(=O)CSc3ccc(Cl)cc3)c2c1
t
ClCCn1cnc2c(SCc3ccccc3Cl)ncnc21
f
